# Tested on: HepaRG
# test name: LDH release cytotoxicity, % of total lysis control; higher = more cytotoxic
# reported conditions: 31.6228 µM; 48 h
measurement type: LDH release cytotoxicity (%)
Field format: number, assumed %, no unit text.

* CCCCCCCCCCCCCCO | -1.69

Returns the measured LDH release cytotoxicity for the input molecule. Input: `C=CCCCCCCCCCCCC`
-4.23

###

# Tested on: HepaRG
# test name: LDH release cytotoxicity, % of total lysis control; higher = more cytotoxic
# reported conditions: 0.3162278 µM; 48 h
Reported LDH release cytotoxicity values are given for each entry in this list.
Field format: number, assumed %, no unit text.

* O=C(O)[C@H](O)[C@@H](O)C(=O)O | -2.17

Hello, I am looking for reported LDH release cytotoxicity with HepaRG for `c1cc2ccc3cccc4ccc(c1)c2c34` . Could you help?
-1.54

Continue with `CC(C)(c1ccccc1)c1ccc(O)cc1`
-1.3

Continue with `Cc1cccc(Nc2cc(Cl)nc(SCC(=O)O)n2)c1C`
-0.978

Continue with `N#CSCSc1nc2ccccc2s1`
-0.155

Continue with CCCCC(CC)COC(=O)CCCCC(=O)OCc1ccccc1 (centres undefined) [Benzyloctyl adipate]
0.101

Continue with `COc1cc(S(=O)(=O)O)c(C)cc1N=Nc1c(O)ccc2cc(S(=O)(=O)O)ccc12`
-0.745

Continue with `O=C(Oc1ccc(Br)cc1)N1CCN2CCC1CC2`
-0.984

Continue with Cc1nc(-c2ccc3c(c2)CCN(CCC2CCC(NC(=O)C=Cc4ccc(F)cc4)CC2)CC3)no1 (centres undefined)
-0.128

Continue with ClC(Cl)c1ccccc1 [Benzal chloride]
-0.461

Continue with `CCC(C)(CC)c1cc(NC(=O)c2c(OC)cccc2OC)on1`
-2.03

Continue with `CN(C)c1ccc(Cc2ccc(N(C)C)cc2)cc1`
-1.73

Continue with Nc1nc(N)c2nc(CNc3ccc(C(=O)NC(CCC(=O)O)C(=O)O)cc3)cnc2n1 (centres undefined)
-7.45

Continue with `Cc1cc(C2CC2)nc(Nc2ccccc2)n1`
-0.874

Continue with `Oc1ccc2ccccc2c1`
-0.787

Continue with NC(=O)N1c2ccccc2C=Cc2ccccc21 [Carbamazepine]
-1.39

Continue with c1cc[n+]2c(c1)-c1cccc[n+]1CC2 [Diquat dibromide monohydrate]
0.818

Continue with `CC(C)N1C(=O)N(c2ccccc2)CSC1=NC(C)(C)C`
-1.95

Continue with `Clc1ccccc1Cl`
-2

###

# Tested on: HepaRG
# test name: LDH release cytotoxicity, % of total lysis control; higher = more cytotoxic
# reported conditions: 10 µM; 48 h
Reported LDH release cytotoxicity values are given for each entry in this list.
Field format: number, assumed %, no unit text.

See these solved cases before continuing.
- CCCCCCCCOc1ccc(C(=O)c2ccccc2)c(O)c1: 0.678
- CSc1ccc(Oc2ccc(S(N)(=O)=O)cc2CN(C)C)cc1C: -1.44
- CCOCCOCCOCCO [2-[2-(2-Ethoxyethoxy)ethoxy]ethanol]: -1.81
- CCCCCCCCCCCCCCC: -0.163
- CN1CCN(Cc2cc(-c3ccc4nc(O)oc4c3)co2)C(c2ccc(F)cc2)C1 (stereo not given): -0.46

Attention now shifts to the item below.
Returns the measured LDH release cytotoxicity for the input compound. Input: O=c1c(-c2ccc(O)cc2)coc2cc(O)ccc12 [7,4'-Dihydroxyisoflavone]
-0.343

All figures here come from the supplement of paper PMC7840683.
